I'd be grateful if you could share measured hERG current change (%, negative = inhibition) at 10uM for these entries.
Molecular target: human ether-à-go-go-related gene (hERG) potassium channel (human, UniProt Q12809);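 note: peak tail current of the secondary pulse compared with the same well before compound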
Sequence (Q12809 whole entry, looked up): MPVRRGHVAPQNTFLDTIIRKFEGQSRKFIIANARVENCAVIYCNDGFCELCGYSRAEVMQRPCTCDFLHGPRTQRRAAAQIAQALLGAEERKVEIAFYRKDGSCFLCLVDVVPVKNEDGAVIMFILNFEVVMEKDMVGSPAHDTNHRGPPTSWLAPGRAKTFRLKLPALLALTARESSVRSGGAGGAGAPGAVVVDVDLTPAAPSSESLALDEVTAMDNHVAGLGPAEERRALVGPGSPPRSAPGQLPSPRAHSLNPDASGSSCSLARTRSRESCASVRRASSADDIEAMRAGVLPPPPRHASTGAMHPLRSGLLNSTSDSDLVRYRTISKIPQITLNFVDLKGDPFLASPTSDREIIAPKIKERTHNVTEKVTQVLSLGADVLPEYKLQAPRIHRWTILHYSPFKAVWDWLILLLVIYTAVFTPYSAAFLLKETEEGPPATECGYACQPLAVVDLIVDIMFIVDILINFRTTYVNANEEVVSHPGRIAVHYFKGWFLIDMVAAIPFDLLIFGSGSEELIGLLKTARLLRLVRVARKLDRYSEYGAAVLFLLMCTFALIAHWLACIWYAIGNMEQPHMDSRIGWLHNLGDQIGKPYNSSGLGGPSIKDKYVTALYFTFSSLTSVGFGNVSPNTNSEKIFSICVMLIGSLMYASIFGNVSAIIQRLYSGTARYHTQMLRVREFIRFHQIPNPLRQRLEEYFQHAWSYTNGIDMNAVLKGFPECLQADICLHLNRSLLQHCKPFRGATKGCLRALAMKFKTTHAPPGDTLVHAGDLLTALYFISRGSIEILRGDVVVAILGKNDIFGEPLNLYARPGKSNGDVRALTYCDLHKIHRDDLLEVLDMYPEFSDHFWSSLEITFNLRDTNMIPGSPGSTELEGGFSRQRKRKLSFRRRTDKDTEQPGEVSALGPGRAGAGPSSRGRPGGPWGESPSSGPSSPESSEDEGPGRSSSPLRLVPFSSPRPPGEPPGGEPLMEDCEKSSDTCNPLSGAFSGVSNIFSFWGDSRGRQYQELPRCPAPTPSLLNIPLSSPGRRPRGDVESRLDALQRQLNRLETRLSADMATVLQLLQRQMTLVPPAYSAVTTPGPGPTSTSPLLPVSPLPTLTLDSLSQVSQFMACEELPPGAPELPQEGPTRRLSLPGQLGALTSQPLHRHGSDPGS
Assay: primary screen, population patch clamp on CHO cells stably expressing hERG; higher = less effect of the substance
The campaign covered roughly 310,000 compounds. About 14,000 (4.5%) showed an effect of 50% or more. The effect is printed as a negative number. What follows is part of a selection rich in strong results, with near analogues and random picks from the rest.
Dear colleague, please return just the value in %, with no unit written.

Item: OCCC1CN(Cc2nc(-c3ccccc3)cs2)CCN1CCc1ccccc1 (centres unmarked) | hERG current change (%, negative = inhibition) at 10uM: -77.8

Item: CCCCNC(=O)C1CCN(Cc2ccccn2)CC1 | hERG current change (%, negative = inhibition) at 10uM: 12

Item: CC1CCN(C(=O)C2CCN(CC(C)c3ccccc3)CC2)CC1.O=C(O)C(=O)O (centres unmarked) | hERG current change (%, negative = inhibition) at 10uM: -13.5

Item: CCCCN(C)C(=O)C1CCN(C/C(C)=C/c2ccccc2)CC1.O=C(O)C(=O)O | hERG current change (%, negative = inhibition) at 10uM: -73.4

Item: CC(C)c1csc(CN2CCN(CCc3ccccc3)C(CCO)C2)n1 (centres unmarked) | hERG current change (%, negative = inhibition) at 10uM: -76

Item: CC(C)c1csc(CN2CCN(Cc3ccccc3)C(CCO)C2)n1 (centres unmarked) | hERG current change (%, negative = inhibition) at 10uM: -26.3

Item: CC(C)CN1CCN(Cc2nc(C(C)C)cs2)CC1CCO (centres unmarked) | hERG current change (%, negative = inhibition) at 10uM: 1.27

Item: C/C(=C\c1ccccc1)CN1CCN(C)CC1 | hERG current change (%, negative = inhibition) at 10uM: 16.2

Item: CCN1CCN(C/C(C)=C/c2ccccc2)CC1 | hERG current change (%, negative = inhibition) at 10uM: 4.72

Item: OCCC1CN(Cc2nc(-c3ccc(F)cc3)cs2)CCN1CCc1ccccc1 (centres unmarked) | hERG current change (%, negative = inhibition) at 10uM: -80.6

Item: CC(NC(=O)c1cccc(Br)c1)c1ccccc1 (centres unmarked) | hERG current change (%, negative = inhibition) at 10uM: -2.43

Data provenance is paper PMC4336329.
